Reference source for all entries: PubChem BioAssay (NCI)

test system: MDA-MB-468 breast; assay: NCI tumour cell line growth inhibition, 48 h; in the data active means GI50 below about 0.43 µM; inactive means the rest
Outcome field: choose from TRUE = active, FALSE = inactive

Write down the call the test reported for this compound. Item: Cc1ccc2c(n1)C(=O)C(Cl)=C(Nc1ccc(C(F)(F)F)cc1)C2=O FALSE

Given NC(=O)C(=CNc1nc(-c2ccc(Cl)c(Cl)c2)cs1)C(N)=O , state the outcome it received in this test. FALSE

Which outcome did this test record for the compound Cc1c[n+](Cc2ccc3ccccc3c2)cn1Cc1ccc2ccccc2c1 ? TRUE

###

system: MDA-MB-468 breast; assay: NCI tumour cell line growth inhibition, 48 h
Label rule, in plain words: TGI of 4 µM and up is y, under 4 µM is n.

Tell me whether TGI is at least 4 µM here: CC(=O)Oc1ccc(Nc2c3ccccc3nc3ccccc23)cc1 n

Decide: is the reported value of TGI for Cc1n(Cc2ccc3ccccc3c2)cc[n+]1Cc1ccc2ccccc2c1 equal to or greater than 4 µM? n

Confirm if TGI reported for the molecule CC(=O)O[C@@H]1C[C@]2(C(C)C)O[C@@]1(C)[C@@H]1CCC(C)=C1[C@@H]2OC(=O)/C=C/c1ccccc1 is 4 µM or above. y

hey, is TGI for this one >= 4 µM? CCN(CC)CCOc1ccc(/C(=C(\C)c2ccc(F)c(OC)c2)c2ccc(Cl)cc2)cc1 y

Textbook exercise: given the entry Cc1c(C2Nc3ccccc3C2C)[nH]c2ccccc12 (stereo unspecified) , state whether its TGI is greater than or equal to 4 µM. y

Form field: TGI at least 4 µM? Entry: COc1cc(/C=C/C(=O)c2cnn(-c3cc(=O)[nH]c4ccc(Br)cc34)c2C)cc(OC)c1OC y

Please tell me: is the molecule O=c1[nH]c2cc(Cl)ccc2n1C1CCN(CCCC(c2ccc(F)cc2)c2ccc(F)cc2)CC1 at or over 4 µM in terms of TGI? n

Say whether CN1CCc2c(Sc3ccc(C(=O)NO)cc3)c3ccccc3n2C1 shows TGI of 4 µM or more. n

Assess whether reported TGI for O=C(Nc1ccc(Cl)cc1F)c1cc(Br)ccc1O sits at 4 µM or higher. y

Does TGI meet or surpass 4 µM for C#C[C@]1(O)CC[C@H]2[C@@H]3CC=C4c5sc(Nc6ccccc6)nc5CC[C@]4(C)[C@H]3CC[C@@]21C ? y
